# Target: GST-LXRβ ligand-binding domain (Homo sapiens, UniProt P55055)
# Construct: amino acids 156-461; NP009052
# Sequence (P55055 156-460 limits assumed): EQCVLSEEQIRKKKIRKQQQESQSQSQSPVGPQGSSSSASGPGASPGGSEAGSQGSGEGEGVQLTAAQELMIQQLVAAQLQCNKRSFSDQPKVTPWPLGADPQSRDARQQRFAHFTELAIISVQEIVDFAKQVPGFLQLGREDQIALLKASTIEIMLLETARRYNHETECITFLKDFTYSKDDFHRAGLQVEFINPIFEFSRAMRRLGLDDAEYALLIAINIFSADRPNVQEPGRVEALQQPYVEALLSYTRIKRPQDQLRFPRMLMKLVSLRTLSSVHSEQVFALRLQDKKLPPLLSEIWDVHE
# Measurement Description: TR-FRETβ activity assay (NCoA3 coactivator peptide recruitment)
# Setup Conditions: 1 μM 24(S)-25-epoxycholesterol prestimulation

{"Molecule": "N#Cc1sccc1-c1c(-c2cccs2)n(S(=O)(=O)c2ccc(Cl)cc2)c2ccc(C(=O)O)cc12", "EC50": "> 10000 nM"}
{"Molecule": "N#Cc1sccc1-c1c(-c2cccc(N3CC(C(=O)O)C3)c2)n(S(=O)(=O)c2ccccc2)c2ccc(F)cc12", "EC50": "1000 to 10000 nM"}
{"Molecule": "Cc1ccc(S(=O)(=O)n2c(-c3cccc(N4CC(C(=O)O)C4)c3)c(-c3ccsc3/C=N/O)c3cc(F)ccc32)cc1", "EC50": "1000 to 10000 nM"}
{"Molecule": "N#Cc1sccc1-c1c(-c2cccs2)n(S(=O)(=O)c2ccc(F)cc2F)c2ccccc12", "EC50": "1000 to 10000 nM"}
{"Molecule": "N#Cc1cc(C(=O)O)ccc1-c1cccc(-c2c(-c3ccccc3C#N)c3cc(F)ccc3n2S(=O)(=O)c2ccc(C(F)F)cc2)c1", "EC50": "< 100 nM"}
{"Molecule": "Cc1ccc(S(=O)(=O)n2c(-c3cccc(-c4ccc(C(=O)O)cc4Cl)c3)c(-c3ccsc3C#N)c3cc(F)ccc32)cc1F", "EC50": "100 to 1000 nM"}
{"Molecule": "CC(C)(O)c1ccc(S(=O)(=O)n2c(-c3cccc(-c4ccc(C(=O)O)cc4Cl)c3)c(-c3ccccc3C#N)c3cc(F)ccc32)cc1", "EC50": "1000 to 10000 nM"}
{"Molecule": "Cc1ccc(S(=O)(=O)n2c(-c3cccc(C4(C)CC4C(=O)O)c3)c(-c3ccsc3C#N)c3cc(F)ccc32)cc1 (centres unmarked) [3/1]", "EC50": "100 to 1000 nM"}
{"Molecule": "Cc1ccc(S(=O)(=O)n2c(-c3cccc(C4CC4C(=O)O)c3)c(-c3ccsc3F)c3ccccc32)cc1 (centres unmarked)", "EC50": "1000 to 10000 nM"}
{"Molecule": "CN1CC(F)(c2ccccc2-c2c(-c3cccc(-c4ccc(C(=O)O)cc4Cl)c3)n(S(=O)(=O)c3ccc(C(F)F)cc3)c3ccc(F)cc23)C1", "EC50": "100 to 1000 nM"}
{"Molecule": "COc1ccc(S(=O)(=O)n2c(-c3ccccc3)c(-c3ccsc3OC)c3ccccc32)cc1", "EC50": "100 to 1000 nM"}
{"Molecule": "N#Cc1cccc(C#N)c1-c1c(-c2cccc(-c3ccc(C(=O)O)cc3F)c2)n(S(=O)(=O)C2CCC(C(F)(F)F)CC2)c2ccc(F)cc12 (centres unmarked)", "EC50": "100 to 1000 nM"}
{"Molecule": "N#Cc1sccc1-c1c(-c2cccc(OCC(=O)O)c2)n(S(=O)(=O)c2ccc(Cl)cc2)c2ccccc12", "EC50": "1000 to 10000 nM"}
{"Molecule": "COc1ccc(S(=O)(=O)n2c(-c3ccc(CCC(N)=O)cc3)c(-c3ccsc3C#N)c3ccccc32)cc1", "EC50": "1000 to 10000 nM"}
